# experimentSummary: physchem
# conditionInfo: pH 5, aqueous buffer, thermodynamic from solid

# compound, solubility
records = [
    ("C=CCN1CC[C@]23c4c5ccc(O)c4O[C@H]2C(=O)CC[C@@]3(O)[C@H]1C5.Cl [Naloxone hydrochloride]", "204 mg/mL"),
]

These measurements were taken from patent US20260091030A1.
